Below, each entry is listed alongside its reported CC50 at 48 h.
Experiment: Cytotoxicity assay on Vero cells (MTS)
Format: cell-based
Conditions: African green monkey

smiles-text | CC50 at 48 h
O=S(=O)(O)CCCSCc1cc2c(cc1CSCCCS(=O)(=O)O)OCCOCCOc1cc(CSCCCS(=O)(=O)O)c(CSCCCS(=O)(=O)O)cc1OCCOCCO2 | > 1000 µM
O=S(=O)(O)CCCCCCSCc1cc(CSCCCCCCS(=O)(=O)O)cc(CSCCCCCCS(=O)(=O)O)c1 | > 1000 µM
O=S(=O)(O)CCCCCCCCCCCSCc1cc2c(cc1CSCCCCCCCCCCCS(=O)(=O)O)OCCOCCOc1cc(CSCCCCCCCCCCCS(=O)(=O)O)c(CSCCCCCCCCCCCS(=O)(=O)O)cc1OCCOCCO2 | > 358 µM
O=S(=O)(O)CCCCCCCCCCCSCc1cc(CSCCCCCCCCCCCS(=O)(=O)O)cc(CSCCCCCCCCCCCS(=O)(=O)O)c1 | > 546 µM
O=S(=O)(O)OCCCCCCCCCCCSCc1cc(CSCCCCCCCCCCCOS(=O)(=O)O)cc(CSCCCCCCCCCCCOS(=O)(=O)O)c1 | 313 µM
O=S(=O)(O)OCCCCCCCCCCCSCc1cc2c(cc1CSCCCCCCCCCCCOS(=O)(=O)O)OCCOCCOc1cc(CSCCCCCCCCCCCOS(=O)(=O)O)c(CSCCCCCCCCCCCOS(=O)(=O)O)cc1OCCOCCO2 | > 657 µM
O=S(=O)(O)OCCCCCCSCc1cc(CSCCCCCCOS(=O)(=O)O)cc(CSCCCCCCOS(=O)(=O)O)c1 | > 1000 µM

###

Below, each entry is listed alongside its reported pIC50.
System: H3N2
Test: Influenza inhibition assay (ICC on MDCK cells, pretreatment)
Format: cell-based
Conditions: Influenza A virus, pretreatment condition, read-out: pretreatment IC50, H3N2
pIC50: −log10 of the molar value.
attribute-measured: pIC50

smiles-text | relation-sign | result
O=S(=O)(O)CCCCCCSCc1cc(CSCCCCCCS(=O)(=O)O)cc(CSCCCCCCS(=O)(=O)O)c1 | < | 3.00
O=S(=O)(O)CCCCCCCCCCCSCc1cc(CSCCCCCCCCCCCS(=O)(=O)O)cc(CSCCCCCCCCCCCS(=O)(=O)O)c1 | = | 4.31
O=S(=O)(O)CCCSCc1cc2c(cc1CSCCCS(=O)(=O)O)OCCOCCOc1cc(CSCCCS(=O)(=O)O)c(CSCCCS(=O)(=O)O)cc1OCCOCCO2 | < | 3.00
O=S(=O)(O)OCCCCCCCCCCCSCc1cc(CSCCCCCCCCCCCOS(=O)(=O)O)cc(CSCCCCCCCCCCCOS(=O)(=O)O)c1 | = | 6.22

###

Assay: Cytotoxicity assay for MDCK (MTT)
Format: cell-based
Conditions: dog, MDCK cells

molecule | CC50 at 24 h
O=S(=O)(O)OCCCCCCSCc1cc(CSCCCCCCOS(=O)(=O)O)cc(CSCCCCCCOS(=O)(=O)O)c1 [B3C6SO4] | > 1000 µM
O=S(=O)(O)CCCSCc1cc2c(cc1CSCCCS(=O)(=O)O)OCCOCCOc1cc(CSCCCS(=O)(=O)O)c(CSCCCS(=O)(=O)O)cc1OCCOCCO2 [C4C3SO3] | > 1000 µM
O=S(=O)(O)CCCCCCCCCCCSCc1cc(CSCCCCCCCCCCCS(=O)(=O)O)cc(CSCCCCCCCCCCCS(=O)(=O)O)c1 [B3C11SO3] | > 415 µM
O=S(=O)(O)CCCCCCCCCCCSCc1cc2c(cc1CSCCCCCCCCCCCS(=O)(=O)O)OCCOCCOc1cc(CSCCCCCCCCCCCS(=O)(=O)O)c(CSCCCCCCCCCCCS(=O)(=O)O)cc1OCCOCCO2 [C4C11SO3] | 202 µM
O=S(=O)(O)OCCCCCCCCCCCSCc1cc(CSCCCCCCCCCCCOS(=O)(=O)O)cc(CSCCCCCCCCCCCOS(=O)(=O)O)c1 [B3C11SO4] | 12.2 µM
O=S(=O)(O)CCCCCCSCc1cc(CSCCCCCCS(=O)(=O)O)cc(CSCCCCCCS(=O)(=O)O)c1 [B3C6SO3] | > 1000 µM
O=S(=O)(O)OCCCCCCCCCCCSCc1cc2c(cc1CSCCCCCCCCCCCOS(=O)(=O)O)OCCOCCOc1cc(CSCCCCCCCCCCCOS(=O)(=O)O)c(CSCCCCCCCCCCCOS(=O)(=O)O)cc1OCCOCCO2 [C4C11SO4] | > 194 µM

###

Below, each entry is listed alongside its reported Kd.
Biological target: BSA (Bos taurus, UniProt P02769)
Construct: purchased Sigma-Aldrich
Sequence (P02769 25-607): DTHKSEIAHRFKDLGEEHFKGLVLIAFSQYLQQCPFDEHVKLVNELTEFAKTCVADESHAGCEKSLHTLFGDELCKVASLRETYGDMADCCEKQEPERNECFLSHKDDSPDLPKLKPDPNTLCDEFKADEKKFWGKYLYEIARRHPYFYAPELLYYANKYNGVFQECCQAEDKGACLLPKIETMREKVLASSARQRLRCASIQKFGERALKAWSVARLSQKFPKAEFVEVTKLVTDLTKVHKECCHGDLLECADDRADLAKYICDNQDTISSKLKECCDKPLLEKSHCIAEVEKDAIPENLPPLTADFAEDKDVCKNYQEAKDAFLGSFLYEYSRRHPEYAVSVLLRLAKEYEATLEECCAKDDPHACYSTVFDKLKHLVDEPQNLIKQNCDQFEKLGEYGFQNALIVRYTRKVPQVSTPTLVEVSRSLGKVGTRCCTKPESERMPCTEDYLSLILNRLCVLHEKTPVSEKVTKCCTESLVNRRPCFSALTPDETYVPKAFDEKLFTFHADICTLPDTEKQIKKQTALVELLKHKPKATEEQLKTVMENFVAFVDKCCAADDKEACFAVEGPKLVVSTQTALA
Assay: Isothermal titration calorimetry with BSA
Assay type: binding, bovine
Conditions: ITC, H2O, 25 °C (Table 5); read-out: K d (BSA)

smiles-text | Kd
O=S(=O)(O)CCCSCc1cc2c(cc1CSCCCS(=O)(=O)O)OCCOCCOc1cc(CSCCCS(=O)(=O)O)c(CSCCCS(=O)(=O)O)cc1OCCOCCO2 | 63 µM
O=S(=O)(O)OCCCCCCCCCCCSCc1cc(CSCCCCCCCCCCCOS(=O)(=O)O)cc(CSCCCCCCCCCCCOS(=O)(=O)O)c1 | 2.23 µM
O=S(=O)(O)OCCCCCCCCCCCSCc1cc2c(cc1CSCCCCCCCCCCCOS(=O)(=O)O)OCCOCCOc1cc(CSCCCCCCCCCCCOS(=O)(=O)O)c(CSCCCCCCCCCCCOS(=O)(=O)O)cc1OCCOCCO2 | 35.7 µM
O=S(=O)(O)CCCCCCCCCCCSCc1cc2c(cc1CSCCCCCCCCCCCS(=O)(=O)O)OCCOCCOc1cc(CSCCCCCCCCCCCS(=O)(=O)O)c(CSCCCCCCCCCCCS(=O)(=O)O)cc1OCCOCCO2 | 10.3 µM
O=S(=O)(O)CCCCCCCCCCCSCc1cc(CSCCCCCCCCCCCS(=O)(=O)O)cc(CSCCCCCCCCCCCS(=O)(=O)O)c1 | 5.82 µM

###

Below, each entry is listed alongside its reported –ΔTS (BSA).
Target: BSA (Bos taurus, UniProt P02769)
Construct: purchased Sigma-Aldrich
Experiment: Isothermal titration calorimetry with BSA
Type: binding, bovine
Details: ITC, H2O, 25 °C (Table 5)

compound | –ΔTS (BSA)
O=S(=O)(O)CCCCCCCCCCCSCc1cc(CSCCCCCCCCCCCS(=O)(=O)O)cc(CSCCCCCCCCCCCS(=O)(=O)O)c1 [B3C11SO3] | 1.93 kcal/mol
O=S(=O)(O)CCCSCc1cc2c(cc1CSCCCS(=O)(=O)O)OCCOCCOc1cc(CSCCCS(=O)(=O)O)c(CSCCCS(=O)(=O)O)cc1OCCOCCO2 [C4C3SO3] | 1.61 kcal/mol

###

Molecular target: BSA (Bos taurus)
Construct: purchased Sigma-Aldrich
Assay: Isothermal titration calorimetry with BSA
Type: binding, bovine
Settings: ITC, PBS, 25 °C (Table S3)
pKd: −log10 of the molar value.

smiles-text | pKd
O=S(=O)(O)OCCCCCCCCCCCSCc1cc2c(cc1CSCCCCCCCCCCCOS(=O)(=O)O)OCCOCCOc1cc(CSCCCCCCCCCCCOS(=O)(=O)O)c(CSCCCCCCCCCCCOS(=O)(=O)O)cc1OCCOCCO2 | 3.79
O=S(=O)(O)CCCCCCCCCCCSCc1cc2c(cc1CSCCCCCCCCCCCS(=O)(=O)O)OCCOCCOc1cc(CSCCCCCCCCCCCS(=O)(=O)O)c(CSCCCCCCCCCCCS(=O)(=O)O)cc1OCCOCCO2 | 3.91
O=S(=O)(O)OCCCCCCCCCCCSCc1cc(CSCCCCCCCCCCCOS(=O)(=O)O)cc(CSCCCCCCCCCCCOS(=O)(=O)O)c1 | 5.42

###

Below, each entry is listed alongside its reported IC50.
Test system: H1N1N09
Assay: Influenza inhibition assay (ICC on MDCK cells)
Assay type: cell-based, Influenza A/Netherlands/602/2009 (H1N1)
Settings: Influenza A virus, dose–response

compound | system | unit-abbrev | relation-sign | IC50
O=S(=O)(O)CCCCCCCCCCCSCc1cc(CSCCCCCCCCCCCS(=O)(=O)O)cc(CSCCCCCCCCCCCS(=O)(=O)O)c1 [B3C11SO3] | H1N1N09 | µM | = | 35.2
O=S(=O)(O)OCCCCCCCCCCCSCc1cc2c(cc1CSCCCCCCCCCCCOS(=O)(=O)O)OCCOCCOc1cc(CSCCCCCCCCCCCOS(=O)(=O)O)c(CSCCCCCCCCCCCOS(=O)(=O)O)cc1OCCOCCO2 [C4C11SO4] | H1N1N09 | µM | = | 80.9
O=S(=O)(O)CCCCCCSCc1cc(CSCCCCCCS(=O)(=O)O)cc(CSCCCCCCS(=O)(=O)O)c1 [B3C6SO3] | H1N1N09 | µM | > | 1000
O=S(=O)(O)OCCCCCCCCCCCSCc1cc(CSCCCCCCCCCCCOS(=O)(=O)O)cc(CSCCCCCCCCCCCOS(=O)(=O)O)c1 [B3C11SO4] | H1N1N09 | µM | = | 0.9
